Assay Name: ATG_GLI_CIS: Attagene CIS-FACTORIAL HepG2 Assay for human Zinc Finger Protein GLI1 (AID 2282945)
Settings: HepG2, Attagene cis-factorial reporter mRNA, GLI element; actives raise or lower the signal
Activity calls are given as the source filed them. The calls were made as follows: active = hit-call score of the fitted dose curve at least 0.9, where 1 is the maximum; inactive = score below 0.9.
Outcome codes: active, inactive

Entry Smiles | Discrete Label
c1ccc(N=Nc2ccccc2)cc1 | inactive
CCCCCCCCOC(=O)c1ccc(C(=O)OCCCCCCCC)c(C(=O)OCCCCCCCC)c1 | active
O=[N+]([O-])c1ccc(Oc2ccc(Cl)cc2Cl)cc1 | inactive
CN(C)[C@@H]1C(=O)C(C(N)=O)=C(O)[C@@]2(O)C(=O)C3=C(O)c4c(O)cccc4[C@@](C)(O)[C@H]3C[C@@H]12 | inactive
CCCCOC(=O)c1ccccc1C(=O)OCc1ccccc1 | inactive

* * *

Assay Name: APR_HepG2_CellLoss_24hr: Apredica 24-hour HepG2 Assay for Cell Loss (AID 2282908)
Settings: high-content imaging
Active and inactive are the calls of the source. How the source made its calls: active means hit-call score of the fitted dose curve at least 0.9, where 1 is the maximum; inactive means score below 0.9.
Outcome codes: active, inactive

Entry Smiles | Discrete Label
Cc1cccc(N)c1N | inactive
CC(C)N(Cc1ccccc1)C(=O)C(C)(C)C | inactive
CS(=O)(=O)NC(=O)c1cc(Oc2ccc(C(F)(F)F)cc2Cl)ccc1[N+](=O)[O-] | inactive
CN(C)[C@@H]1C(=O)C(C(N)=O)=C(O)[C@@]2(O)C(=O)C3=C(O)c4c(O)cccc4[C@@](C)(O)[C@H]3C[C@@H]12 | inactive
O=P(OCCCl)(OCCCl)OCCCl | inactive
c1ccc2c(c1)oc1ccccc12 | inactive
COC(=O)Nc1nc2ccccc2[nH]1 | active
COC(=O)c1ccccc1N | inactive
Cc1ccc(N=C=O)cc1N=C=O | inactive
Nc1cc(Cl)cc(C(=O)O)c1Cl | inactive
OCCOCCO | inactive

* * *

Assay Name: APR_HepG2_P-H2AX_24hr: Apredica 24-hour HepG2 Assay for H2AX Phosphorylation (AID 2282920)
Settings: high-content imaging, actives raise or lower the signal
The source made the active and inactive calls. Rule for the calls: active = hit-call score of the fitted dose curve at least 0.9, where 1 is the maximum; inactive = score below 0.9.
Outcome codes: Y = active, N = inactive

Molecule | Discrete Label
O=[N+]([O-])C(Br)(CO)CO | N
Cn1cc(-c2ccccc2)c(=O)c(-c2cccc(C(F)(F)F)c2)c1 | N
O=C1CCCO1 | N
CC(C)N(Cc1ccccc1)C(=O)C(C)(C)C | N
CCC12COCN1COC2 | Y
CCCSC(=O)N(CCC)CCC | N
Cc1cc(N=Nc2ccccc2C)ccc1N | Y
CCNS(=O)(=O)C(F)(F)C(F)(F)C(F)(F)C(F)(F)C(F)(F)C(F)(F)C(F)(F)C(F)(F)F | Y
C1=Cc2cccc3cccc1c23 | N
CCC(C)c1ccc(O)cc1 (stereo not given) | N
CCCCCOC(=O)c1ccccc1C(=O)OCCCCC | N
C[C@]12C=CC3=C4CCC(=O)C=C4CC[C@H]3[C@@H]1CC[C@@H]2O | N
CCOC(=O)[C@]1(c2ccccc2)Oc2ccccc2[C@@H]1N | Y
N#CC(Br)Br | Y
Clc1ccccc1Cl | N

* * *

Tested On: Estrogen receptor beta (Homo sapiens) (UniProt Q92731)
Sequence (Q92731 whole entry, looked up): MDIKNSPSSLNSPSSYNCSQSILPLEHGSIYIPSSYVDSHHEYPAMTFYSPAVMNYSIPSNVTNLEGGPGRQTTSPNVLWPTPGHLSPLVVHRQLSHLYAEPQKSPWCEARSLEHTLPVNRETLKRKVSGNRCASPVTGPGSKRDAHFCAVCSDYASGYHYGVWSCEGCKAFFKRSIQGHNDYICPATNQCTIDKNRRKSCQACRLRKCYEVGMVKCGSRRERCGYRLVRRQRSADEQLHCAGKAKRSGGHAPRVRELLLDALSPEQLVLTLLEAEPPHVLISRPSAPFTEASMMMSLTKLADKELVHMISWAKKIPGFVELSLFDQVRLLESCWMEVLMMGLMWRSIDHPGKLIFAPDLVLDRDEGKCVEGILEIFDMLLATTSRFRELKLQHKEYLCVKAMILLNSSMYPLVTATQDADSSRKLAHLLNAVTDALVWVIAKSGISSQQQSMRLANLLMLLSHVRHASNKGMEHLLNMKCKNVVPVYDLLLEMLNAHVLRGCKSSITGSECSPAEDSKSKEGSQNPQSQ
Assay Name: OT_ER_ERbERb_0480: Odyssey Thera (OT) 8-hour HEK293T Protein-Complementation Assay for Estrogen Receptor-beta/-beta Homodimer (AID 2283357);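 also: active means signal gain over DMSO baseline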
Results filed as inconclusive are left out. Calls of active or inactive are those of the source. Rule for the calls: active = hit-call score of the fitted dose curve at least 0.9, where 1 is the maximum; inconclusive = response in the unintended direction; inactive = score below 0.9.
Measured Metric: AC50

Molecule | Endpoint Result
ClC1=C(Cl)C2(Cl)C3C(Cl)C=CC3C1(Cl)C2(Cl)Cl (stereo not drawn) | inactive
COC(=O)Nc1nc2ccccc2[nH]1 | inactive
C=CCc1ccc2c(c1)OCO2 | inactive
Clc1ccc(Cl)c(Cl)c1 | inactive
CC(C)COC(=O)c1ccccc1C(=O)OCC(C)C | 25.9 µM (active)
Clc1ccccc1Cl | inactive
OCCCBr | inactive
C[N+](C)(C)CC1CO1 (stereo not drawn) | inactive
Nc1ccc(N=Nc2ccccc2)cc1 | 34.6 µM (active)
CC(C)(C)OOC(=O)c1ccccc1 | inactive
CN(C)c1ccc(C(=O)c2ccc(N(C)C)cc2)cc1 | inactive
CCCCCCCCCCCCCN1CC(C)OC(C)C1 (stereo not drawn) | inactive
CCC(C)c1ccc(O)cc1 (stereo not drawn) | 16.3 µM (active)
Nc1ccc([N+](=O)[O-])cc1 | inactive
CC(C)(OOC(C)(C)c1ccccc1)c1ccccc1 | 3.31 µM (active)
CN(C)C(=O)Nc1ccc(Cl)cc1 | inactive
COC(=O)c1ccccc1N | inactive
[Cl-].[Cl-].[Hg+2] | inactive
O=C(N[C@H](c1ccccc1)[C@@H]1CN2CCC1CC2)c1c(Cl)ccc(C(F)(F)F)c1Cl | inactive
Nc1cc(Cl)cc(C(=O)O)c1Cl | inactive
CN(C)c1ccccc1 | inactive
CC(O)CCO (stereo not drawn) | inactive
Cc1ccc([N+](=O)[O-])cc1 | inactive
c1ccc2c(c1)oc1ccccc12 | inactive
Cc1cccc(N)c1N | inactive
Cc1cc(N=Nc2ccccc2C)ccc1N | 12.1 µM (active)
N#CC(Br)Br | inactive
COP(=S)(OC)SCN1C(=O)c2ccccc2C1=O | inactive
[O-][Cl+]O | inactive
Cc1ccc(N)c(N)c1 | inactive
OCCOCCO | inactive
ClCCOCCCl | inactive
O=[N+]([O-])C(Br)(CO)CO | inactive

* * *

Assay Name: CCTE_Shafer_MEA_acute_synchrony_index: CCTE's Neural Acute Assay for Synchrony, Shafer Lab (AID 2284027);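 also: network synchrony index of spontaneous spiking in primary rat cortical neurons on MEAs; fitted for loss of signal so actives lower synchrony relative to DMSO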
The source made the active and inactive calls. Rule for the calls: active = hit-call score of the fitted dose curve at least 0.9, where 1 is the maximum; inactive = score below 0.9.
Outcome codes: active, inactive

Compound | Discrete Label
O=[N+]([O-])c1ccc(Oc2ccc(Cl)cc2Cl)cc1 | active
CCCCCOC(=O)c1ccccc1C(=O)OCCCCC | active
CC(C)(OOC(C)(C)c1ccccc1)c1ccccc1 | inactive
ClC1=C(Cl)C2(Cl)C3C(Cl)C=CC3C1(Cl)C2(Cl)Cl (stereo unspecified) | inactive
O=P(OCCCl)(OCCCl)OCCCl | inactive
CCN(CC)CCO | inactive
O=C(N[C@H](c1ccccc1)[C@@H]1CN2CCC1CC2)c1c(Cl)ccc(C(F)(F)F)c1Cl | inactive
N#CC(Br)Br | inactive
c1ccc(NNc2ccccc2)cc1 | active
ClCCOCCCl | inactive
CC(C)COC(=O)c1ccccc1C(=O)OCC(C)C | active
COC(=O)Nc1nc2ccccc2[nH]1 | inactive
CCCCCCCCn1sccc1=O | active
ClC1=C(Cl)[C@]2(Cl)[C@H]3[C@H]([C@@H]4C=C[C@H]3C4)[C@@]1(Cl)C2(Cl)Cl | inactive
CC(C)(O)c1cnn2c(-c3ccc(F)c(-c4c(F)cccc4C#N)c3)cnc2n1 | active
O=C(Oc1ccc(Br)cc1)N1CCN2CCC1CC2 | inactive

* * *

Assay Name: ATG_CMV_CIS: Attagene CIS-FACTORIAL HepG2 Assay for human CMV (Internal Marker) (AID 2282928);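 also: endpoint acts as a background internal control marker rather than a target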
Settings: HepG2 CMV promoter reporter, transcription factor profiling; actives raise or lower the signal
Activity calls are given as the source filed them. How the source made its calls: active means hit-call score of the fitted dose curve at least 0.9, where 1 is the maximum; inactive means score below 0.9.
Measured Metric: outcome

Entry Smiles | Measured Metric | Endpoint Result
CNC(=O)Oc1cccc2c1OC(C)(C)C2 | outcome | inactive
O=P(OCCCl)(OCCCl)OCCCl | outcome | inactive
O=Cc1ccco1 | outcome | inactive

* * *

Assay Name: ATG_CRE_CIS: Attagene CIS-FACTORIAL HepG2 Assay for human cAMP Responsive Element (CRE) binding protein 3 (AID 2282926)
Settings: HepG2 CRE cis-reporter, Attagene multiplexed mRNA; actives raise or lower the signal
Activity calls are given as the source filed them. How the source made its calls: active means hit-call score of the fitted dose curve at least 0.9, where 1 is the maximum; inactive means score below 0.9.
Outcome codes: true = active, false = inactive

Compound | Discrete Label
Cc1cc(N=Nc2ccccc2C)ccc1N | false
Oc1ccc2ccc3cccc4ccc1c2c34 | false
ClC1=C(Cl)C2(Cl)C3C(Cl)C=CC3C1(Cl)C2(Cl)Cl (stereo not given) | false
ClC1=C(Cl)[C@]2(Cl)[C@H]3[C@H]([C@@H]4C=C[C@H]3C4)[C@@]1(Cl)C2(Cl)Cl | false
CCC[CH2][Sn]([Cl])([CH2]CCC)[CH2]CCC | false
CC(C)N(Cc1ccccc1)C(=O)C(C)(C)C | false
COC(=O)Nc1nc2ccccc2[nH]1 | false
N#CC(Br)Br | false
Cc1ccc(N)cc1 | false
[Cl-].[Cl-].[Hg+2] | false
COc1cc(C=O)cc2c1[C@H](COC(N)=O)[C@]1(OC(C)=O)ON2C[C@H]2[C@@H]1N2C(C)=O | true
O=C(N[C@H](c1ccccc1)[C@@H]1CN2CCC1CC2)c1c(Cl)ccc(C(F)(F)F)c1Cl | false
Clc1ccccc1Cl | false
[O-][Cl+]O | false
c1ccc2c(c1)-c1cccc3cccc-2c13 | false

* * *

Read-out: Alkaline Phosphatase, Placental (ALPP) gene, ALPP (gene 250)
Assay Name: LTEA_HepaRG_ALPP: Life Technologies and Expression Analysis (LTEA) Assay for Alkaline Phosphatase, Placental (ALPP) gene using HepaRG (AID 2283468)
Settings: mRNA level, 48 h; actives raise or lower the signal
Active and inactive are the calls of the source. How the source made its calls: active means hit-call score of the fitted dose curve at least 0.9, where 1 is the maximum; inactive means score below 0.9.
Outcome codes: 1 = active, 0 = inactive

Compound | Discrete Label
CCC(C)c1ccc(O)cc1 (stereo not drawn) | 0
O=P(OCCCl)(OCCCl)OCCCl | 0
Clc1ccc(C(c2ccc(Cl)cc2)C(Cl)Cl)cc1 | 1
Clc1ccc(C(c2ccc(Cl)cc2)C(Cl)(Cl)Cl)cc1 | 0
[Cl-].[Cl-].[Hg+2] | 0
Brc1ccc(Oc2ccccc2)cc1 | 0
Nc1ccc(Oc2ccc(N)cc2)cc1 | 0
c1ccc2c(c1)oc1ccccc12 | 0
ClC1=C(Cl)[C@]2(Cl)[C@H]3[C@H]([C@@H]4C=C[C@H]3C4)[C@@]1(Cl)C2(Cl)Cl | 0
N#CC(Br)Br | 0
OCCCBr | 0
COc1cc(C=O)cc2c1[C@H](COC(N)=O)[C@]1(OC(C)=O)ON2C[C@H]2[C@@H]1N2C(C)=O | 0
CC(C)(C)C(O)(CCc1ccc(Cl)cc1)Cn1cncn1 (stereo not drawn) | 1
